test-system: human α5β3γ2L GABAA receptors expressed in HEK-293 cells (Homo sapiens, UniProt P28472+P31644)
Construct: The coding regions of the human GABAA receptor subunits were then amplified by PCR; expressed in transfected cells; host or cells: HEK-293 (permanently transfected, pcDNA3.1 vectors, CMV promoter)
Sequence (P31644 32-462): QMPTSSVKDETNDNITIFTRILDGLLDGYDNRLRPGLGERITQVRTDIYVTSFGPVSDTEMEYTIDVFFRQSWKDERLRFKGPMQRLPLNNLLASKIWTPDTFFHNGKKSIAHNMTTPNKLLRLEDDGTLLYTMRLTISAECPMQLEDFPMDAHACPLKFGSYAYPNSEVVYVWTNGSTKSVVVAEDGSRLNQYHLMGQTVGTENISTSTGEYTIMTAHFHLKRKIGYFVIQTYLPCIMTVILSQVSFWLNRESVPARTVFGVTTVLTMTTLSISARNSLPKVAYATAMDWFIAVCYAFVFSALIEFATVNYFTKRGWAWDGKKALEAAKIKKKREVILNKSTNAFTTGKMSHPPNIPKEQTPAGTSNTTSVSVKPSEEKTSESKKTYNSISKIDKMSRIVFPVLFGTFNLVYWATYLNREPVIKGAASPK
Sequence (P28472 26-473 isoform P28472-2 limits assumed): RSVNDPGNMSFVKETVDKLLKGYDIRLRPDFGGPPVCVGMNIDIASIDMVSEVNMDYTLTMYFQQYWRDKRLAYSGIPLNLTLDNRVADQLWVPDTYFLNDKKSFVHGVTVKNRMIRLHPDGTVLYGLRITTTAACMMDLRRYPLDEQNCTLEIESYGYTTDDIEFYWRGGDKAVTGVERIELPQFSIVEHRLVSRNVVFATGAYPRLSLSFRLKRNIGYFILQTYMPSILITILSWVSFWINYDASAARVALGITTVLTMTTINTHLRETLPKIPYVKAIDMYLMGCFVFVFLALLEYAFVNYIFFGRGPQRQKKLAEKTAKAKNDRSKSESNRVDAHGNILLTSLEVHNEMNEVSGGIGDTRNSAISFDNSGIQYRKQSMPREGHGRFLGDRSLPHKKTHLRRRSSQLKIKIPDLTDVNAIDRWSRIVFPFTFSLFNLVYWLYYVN
Sequence (P18507 40-475 partner): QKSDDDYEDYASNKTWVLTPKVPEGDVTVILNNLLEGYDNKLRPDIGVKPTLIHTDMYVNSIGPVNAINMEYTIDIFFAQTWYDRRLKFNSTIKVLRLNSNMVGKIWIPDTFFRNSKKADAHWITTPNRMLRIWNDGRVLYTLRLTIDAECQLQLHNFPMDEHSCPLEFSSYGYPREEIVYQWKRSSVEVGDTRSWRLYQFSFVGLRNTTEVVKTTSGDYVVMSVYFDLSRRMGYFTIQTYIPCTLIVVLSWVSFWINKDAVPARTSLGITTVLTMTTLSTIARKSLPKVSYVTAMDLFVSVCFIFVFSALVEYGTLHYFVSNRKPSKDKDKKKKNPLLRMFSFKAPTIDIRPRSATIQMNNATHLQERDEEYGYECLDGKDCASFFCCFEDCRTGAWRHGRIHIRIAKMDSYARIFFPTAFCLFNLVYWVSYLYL
protocol-details: Whole-cell patch clamp of GABA/THDOC-evoked currents, extra-synaptic protocol (Dynaflow)
Format: cell-based
run-conditions: IC50 for decrease of peak current amplitude of THDOC-potentiated GABA-mediated response, 200 nM THDOC + 0.3 µM GABA, n = 4-14
recorded-endpoint: IC50 (nM)
Answers are plain numbers, in nM.

Retrieve IC50 measured for C#C[C@]1(O)CC[C@@]2(C)[C@@H](CC[C@@H]3[C@@H]2CC[C@]2(C)/C(=N/O)CC[C@@H]32)C1 and print it. 563

###

test-system: human α5β3γ2L GABAA receptors expressed in HEK-293 cells (Homo sapiens, UniProt P28472+P31644)
Construct: The coding regions of the human GABAA receptor subunits were then amplified by PCR; expressed in transfected cells; host or cells: HEK-293 (permanently transfected, pcDNA3.1 vectors, CMV promoter)
protocol-details: Whole-cell patch clamp of GABA/THDOC-evoked currents, extra-synaptic protocol (Dynaflow)
Format: cell-based
run-conditions: THDOC EC50, enhancement of GABA-evoked peak amplitude, THDOC 0.01-1 µM + 0.3 µM GABA, no GR3027
recorded-endpoint: pEC50
One number for each entry, as −log10 of the molar value.

Retrieve pEC50 measured for C[C@]12CC[C@@H](O)C[C@@H]1CC[C@@H]1[C@@H]2CC[C@]2(C)[C@@H](C(=O)CO)CC[C@@H]12 [THDOC, 3α,21-dihydroxy-5α-pregnan-20-one, reference compound] and print it. 6.72

###

protocol-details: Pharmacokinetic analysis of GR3027 in plasma after i.v. and p.o. administration
Format: in vivo, rat
run-conditions: male, Sprague-Dawley, plasma, iv; 2 mg/kg i.v., rat, mean
recorded-endpoint: MRT (min)
One number for each entry, in min.

Retrieve MRT measured for C#C[C@]1(O)CC[C@@]2(C)[C@@H](CC[C@@H]3[C@@H]2CC[C@]2(C)/C(=N/O)CC[C@@H]32)C1 and print it. 16.6

###

test-system: human α5β3γ2L GABAA receptors expressed in HEK-293 cells (Homo sapiens, UniProt P28472+P31644)
Construct: The coding regions of the human GABAA receptor subunits were then amplified by PCR; expressed in transfected cells; host or cells: HEK-293 (permanently transfected, pcDNA3.1 vectors, CMV promoter)
protocol-details: Whole-cell patch clamp of GABA/THDOC-evoked currents, extra-synaptic protocol (Dynaflow)
Format: cell-based
recorded-endpoint: IC50 (nM)
Numbers only, in nM.

Retrieve IC50 measured for C#C[C@]1(O)CC[C@@]2(C)[C@@H](CC[C@@H]3[C@@H]2CC[C@]2(C)/C(=N/O)CC[C@@H]32)C1 and print it. 344

###

protocol-details: Pharmacokinetic analysis of GR3027 in plasma after i.v. and p.o. administration
Format: in vivo, rat
run-conditions: male, Sprague-Dawley, iv; 2 mg/kg i.v., rat plasma, mean
recorded-endpoint: Cmax (µg/mL)
One number for each entry, in µg/mL.

Retrieve Cmax measured for C#C[C@]1(O)CC[C@@]2(C)[C@@H](CC[C@@H]3[C@@H]2CC[C@]2(C)/C(=N/O)CC[C@@H]32)C1 and print it. 74.5

###

test-system: human α5β3γ2L GABAA receptors expressed in HEK-293 cells (Homo sapiens, UniProt P28472+P31644)
Construct: The coding regions of the human GABAA receptor subunits were then amplified by PCR; expressed in transfected cells; host or cells: HEK-293 (permanently transfected, pcDNA3.1 vectors, CMV promoter)
protocol-details: Whole-cell patch clamp of GABA/THDOC-evoked currents, extra-synaptic protocol (Dynaflow)
Assay type: cell-based
run-conditions: EC50 of THDOC effect (outward shift in baseline holding current, direct activation), THDOC 30-300 nM, 0.3 µM GABA 6 s protocol, holding potential −17 mV
Excerpt: Wild-type HEK-293 cells (passage 4, originating from Pasteur Institute, Paris, France) were permanently transfected with vectors including the human CMV promoter for the constitutive expression of the human α5, β3, and γ2L GABAA receptor subunits (α5β3γ2L) or the human α1, β2, and γ2L GABAA receptor subunits (α1β2γ2L). The production of the plasmids used in the sub-cloning of the different subunits is published in Rahman et al.. […]
recorded-endpoint: EC50 (nM)
Numbers only, in nM.

Retrieve EC50 measured for C[C@]12CC[C@@H](O)C[C@@H]1CC[C@@H]1[C@@H]2CC[C@]2(C)[C@@H](C(=O)CO)CC[C@@H]12 [THDOC, 3α,21-dihydroxy-5α-pregnan-20-one, reference compound] and print it. 32

###

protocol-details: Pharmacokinetic analysis of GR3027 in plasma after i.v. and p.o. administration
Type: in vivo, rat
run-conditions: male, Sprague-Dawley, po; 10 mg/kg p.o., rat plasma, mean
recorded-endpoint: Cmax (ng/mL)
Numbers only, in ng/mL.

Retrieve Cmax measured for C#C[C@]1(O)CC[C@@]2(C)[C@@H](CC[C@@H]3[C@@H]2CC[C@]2(C)/C(=N/O)CC[C@@H]32)C1 and print it. 504

###

test-system: human α5β3γ2L GABAA receptors expressed in HEK-293 cells (Homo sapiens, UniProt P28472+P31644)
Construct: The coding regions of the human GABAA receptor subunits were then amplified by PCR; expressed in transfected cells; host or cells: HEK-293 (permanently transfected, pcDNA3.1 vectors, CMV promoter)
protocol-details: Whole-cell patch clamp of GABA/THDOC-evoked currents, extra-synaptic protocol (Dynaflow)
Format: cell-based
run-conditions: THDOC EC50, enhancement of GABA-evoked peak amplitude, THDOC 0.01-1 µM + 0.3 µM GABA + 1 µM GR3027
recorded-endpoint: EC50 (nM)
Answers are plain numbers, in nM.

Retrieve EC50 measured for C[C@]12CC[C@@H](O)C[C@@H]1CC[C@@H]1[C@@H]2CC[C@]2(C)[C@@H](C(=O)CO)CC[C@@H]12 [THDOC, 3α,21-dihydroxy-5α-pregnan-20-one, reference compound] and print it. 220

###

test-system: human α5β3γ2L GABAA receptors expressed in HEK-293 cells (Homo sapiens, UniProt P28472+P31644)
Construct: The coding regions of the human GABAA receptor subunits were then amplified by PCR; expressed in transfected cells; host or cells: HEK-293 (permanently transfected, pcDNA3.1 vectors, CMV promoter)
protocol-details: Whole-cell patch clamp of GABA/THDOC-evoked currents, extra-synaptic protocol (Dynaflow)
Assay type: cell-based
run-conditions: THDOC EC50, enhancement of GABA-evoked peak amplitude, THDOC 0.01-1 µM + 0.3 µM GABA + 3 µM GR3027
recorded-endpoint: pEC50
One number for each entry, as −log10 of the molar value.

Retrieve pEC50 measured for C[C@]12CC[C@@H](O)C[C@@H]1CC[C@@H]1[C@@H]2CC[C@]2(C)[C@@H](C(=O)CO)CC[C@@H]12 [THDOC, 3α,21-dihydroxy-5α-pregnan-20-one, reference compound] and print it. 6.46

###

protocol-details: Pharmacokinetic analysis of GR3027 in plasma after i.v. and p.o. administration
Type: in vivo, rat
run-conditions: male, Sprague-Dawley, po; 10 mg/kg p.o., rat plasma, mean
Protocol: Ten male Sprague-Dawley rats were used to assess PK with GR3027 given orally and intravenously, respectively. Animals were kept at room temperature with artificial light under a 12/12 h light/dark schedule, and with food and water ad libitum. […] All the samples were analyzed in triplicate by Admescope Ltd., Oulu, Finland, using an LC/MS/MS method developed for the purpose, using a Waters ACQUITY UPLC_Waters XEVO-TQS triple-quadrupole mass spectrometer. […]
recorded-endpoint: Tmax (min)
Numbers only, in min.

Retrieve Tmax measured for C#C[C@]1(O)CC[C@@]2(C)[C@@H](CC[C@@H]3[C@@H]2CC[C@]2(C)/C(=N/O)CC[C@@H]32)C1 and print it. 34

###

protocol-details: Pharmacokinetic analysis of GR3027 in plasma after i.v. and p.o. administration
Format: in vivo, rat
run-conditions: male, Sprague-Dawley, po; 10 mg/kg p.o., rat plasma, mean; read-out: t½
recorded-endpoint: half-life (min)
One number for each entry, in min.

Retrieve half-life measured for C#C[C@]1(O)CC[C@@]2(C)[C@@H](CC[C@@H]3[C@@H]2CC[C@]2(C)/C(=N/O)CC[C@@H]32)C1 [GR3027] and print it. 310

The reported numbers originate from paper PMC10604444.
